# assay.target: S1P3 (Homo sapiens, UniProt Q99500)
# Sequence (Q99500 whole entry, species assumed): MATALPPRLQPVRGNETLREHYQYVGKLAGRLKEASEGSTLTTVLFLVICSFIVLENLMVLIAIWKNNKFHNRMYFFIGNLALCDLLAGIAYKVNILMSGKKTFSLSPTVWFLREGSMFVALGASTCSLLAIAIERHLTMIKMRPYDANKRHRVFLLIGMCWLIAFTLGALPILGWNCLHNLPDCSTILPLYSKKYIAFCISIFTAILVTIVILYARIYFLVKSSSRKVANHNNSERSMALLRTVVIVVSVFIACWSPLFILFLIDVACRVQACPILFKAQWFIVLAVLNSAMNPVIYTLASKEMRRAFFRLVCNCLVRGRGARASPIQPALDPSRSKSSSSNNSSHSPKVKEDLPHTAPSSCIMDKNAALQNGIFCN
# assay.procedure: Receptor binding assay, [33P]sphingosine 1-phosphate competition, membranes of CHO cells expressing S1P3
# details: 96 well plate; read-out: S1P3 Binding Ki [M] (96 well plate)
Where a name gives a salt, the structure may show the parent alone.
observation.type: Ki

Check out these entries, answers already filled in.
# compound, Ki
records = [
    ("Cc1cc(-c2nc(-c3ccc([C@@H](C)N[C@H](C)C(=O)O)cc3)no2)ccc1-c1ccccc1C(F)(F)F [Example 6, hydrochloride salt]", "> 2e-05 M"),
    ("Cc1cc(-c2nc(-c3ccc([C@@H](C)NCC(=O)O)cc3)no2)ccc1-c1ccccc1C(F)(F)F [Example 8, hydrochloride salt]", "> 2e-05 M"),
]

Next up:
Req: Supply measured Ki of COCc1cc(-c2nc(-c3ccc([C@H](C)N(C)CC(=O)O)cc3)no2)ccc1-c1ccccc1C [Example 98, hydrochloride salt] in your reply.
Resp: ≥ 2e-05 M
